B1: BTBD1 (parent)
chain: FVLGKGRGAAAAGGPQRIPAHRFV

variants of: B1; assay: protein stability index of a GFP-peptide fusion (GPS, HEK-293T) (PSI 1-6); higher = more stable; details: c terminus: a fixed tail appended;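 note: lentivirally expressed fusions sorted by FACS into six bins by GFP to DsRed ratio, PSI derived from sequencing read proportions per bin multiplied by bin number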
readout.label: protein stability index
Answers are plain numbers.

R22Q: 1.84
G4R: 2.33
G6M: 1.38
P19S: 1.31

# map each variant to its protein stability index
1. A10V
2. I18P
3. G6N
4. F1N
5. G13P
6. A12G
7. A9K

1. 1.43
2. 2.12
3. 2.1
4. 3.31
5. 1.75
6. 2.21
7. 1.92

# map each variant to its protein stability index
1. A12E
2. R22T
3. G8E
4. K5H
5. G14K
6. R22M
7. G13K
8. P19R

1.84
5.22
2.01
1.95
2.83
4.76
1.16
1.81

# map each variant to its protein stability index
1. G6R
2. A9G
3. G13N

[1.78, 1.72, 2.57]
